# System: P388
# protocol notes: Antileukemic activity against P-388 leukemia cells.
# Assay type: functional, cell-based
# run parameters: Mus musculus
test readout: IC50 (µg/mL)

* COC(=O)C[C@](O)(CCC(C)C)C(=O)O[C@H]1[C@H]2c3cc4c(cc3[C@H]3CN5CCC[C@]25C[C@]1(OC)O3)OCO4 | 0.007
* COC(=O)C[C@](O)(CCC(C)(C)O)C(=O)O[C@@H]1C(OC)=CC23CCCN2CCc2cc4c(cc2[C@H]13)OCO4 (single isomer, unassigned) [HARRINGTONINE] | 0.032
* COC(=O)C[C@](O)(CCCC(C)(C)O)C(=O)O[C@@H]1C(OC)=CC23CCCN2CCc2cc4c(cc2[C@H]13)OCO4 (single isomer, unassigned) [OMACETAXINE MEPESUCCINATE] | 0.017
* COC(=O)C[C@](O)(CCC(C)C)C(=O)O[C@@H]1C(OC)=CC23CCCN2CCc2cc4c(cc2[C@H]13)OCO4 (single isomer, unassigned) [DEOXYHARRINGTONINE] | 0.0075
